molecular target: plasma purified human complement protein C3 (human) (UniProt P01024); experiment: cell-based or functional assay
Sequence (P01024 23-667, chain 1 of 2): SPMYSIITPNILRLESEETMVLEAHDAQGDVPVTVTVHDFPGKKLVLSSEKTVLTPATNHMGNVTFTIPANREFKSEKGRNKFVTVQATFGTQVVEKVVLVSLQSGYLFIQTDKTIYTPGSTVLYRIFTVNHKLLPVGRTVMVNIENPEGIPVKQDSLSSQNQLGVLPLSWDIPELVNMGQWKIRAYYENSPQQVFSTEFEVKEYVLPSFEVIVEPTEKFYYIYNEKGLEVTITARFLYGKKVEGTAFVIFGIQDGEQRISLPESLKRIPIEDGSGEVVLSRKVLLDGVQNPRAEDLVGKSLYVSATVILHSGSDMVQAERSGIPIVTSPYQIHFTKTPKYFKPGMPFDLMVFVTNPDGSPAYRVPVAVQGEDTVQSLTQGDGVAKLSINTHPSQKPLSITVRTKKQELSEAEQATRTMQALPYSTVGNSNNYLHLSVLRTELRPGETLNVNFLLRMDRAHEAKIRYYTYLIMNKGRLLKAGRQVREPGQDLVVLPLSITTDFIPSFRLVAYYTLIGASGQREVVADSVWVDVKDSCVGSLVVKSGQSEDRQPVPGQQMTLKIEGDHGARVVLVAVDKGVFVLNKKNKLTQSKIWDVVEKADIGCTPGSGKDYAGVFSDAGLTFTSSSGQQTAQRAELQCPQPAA
Sequence (P01024 672-1663, chain 2 of 2): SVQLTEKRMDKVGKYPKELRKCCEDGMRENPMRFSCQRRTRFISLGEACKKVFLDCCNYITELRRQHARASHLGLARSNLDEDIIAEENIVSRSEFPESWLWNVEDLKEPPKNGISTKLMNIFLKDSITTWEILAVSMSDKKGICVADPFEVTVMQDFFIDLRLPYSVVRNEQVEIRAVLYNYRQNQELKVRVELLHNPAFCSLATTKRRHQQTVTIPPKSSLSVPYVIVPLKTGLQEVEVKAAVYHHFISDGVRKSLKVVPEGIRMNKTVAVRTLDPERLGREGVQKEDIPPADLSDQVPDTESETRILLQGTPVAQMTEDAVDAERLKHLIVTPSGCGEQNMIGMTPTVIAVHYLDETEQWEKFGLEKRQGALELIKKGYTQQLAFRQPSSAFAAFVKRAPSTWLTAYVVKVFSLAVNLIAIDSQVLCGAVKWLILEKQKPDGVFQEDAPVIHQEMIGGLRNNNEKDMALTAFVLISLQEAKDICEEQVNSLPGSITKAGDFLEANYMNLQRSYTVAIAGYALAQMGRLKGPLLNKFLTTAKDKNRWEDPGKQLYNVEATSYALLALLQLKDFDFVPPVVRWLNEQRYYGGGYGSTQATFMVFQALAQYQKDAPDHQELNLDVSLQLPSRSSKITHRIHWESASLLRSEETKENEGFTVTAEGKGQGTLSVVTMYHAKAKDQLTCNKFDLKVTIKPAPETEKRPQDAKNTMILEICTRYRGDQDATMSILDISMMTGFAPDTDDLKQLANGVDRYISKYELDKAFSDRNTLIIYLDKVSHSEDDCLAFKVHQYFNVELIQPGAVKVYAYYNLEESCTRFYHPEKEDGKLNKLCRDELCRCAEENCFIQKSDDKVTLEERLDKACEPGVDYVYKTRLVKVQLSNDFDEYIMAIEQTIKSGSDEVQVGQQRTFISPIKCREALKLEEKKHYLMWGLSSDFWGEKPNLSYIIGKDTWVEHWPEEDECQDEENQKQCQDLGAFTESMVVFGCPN
measuredParameter: EC50 of hC3 cleavage

INSERT INTO results (binder, measurement) VALUES
  ('MTSP-1 H40R/I41H/F97D/F99L/C122S/Q175M/Q192G/D217V/K224Y (enzyme) VVGGTDADEGEWPWQVSLHALGQGRHCGASLISPNWLVSAAHCYIDDRGFRYSDPTQWTAFLGLHDQSQRSAPGVQERRLKRIISHPFFNDDTLDYDIALLELEKPAEYSSMVRPISLPDASHVFPAGKAIWVTGWGHTQYGGTGALILQKGEIRVINQTTCENLLPQMITPRMMCVGFLSGGVDSCGGDSGGPLSSVEADGRIFQAGVVSWGVGCAQRNYPGVYTRLPLFRDWIKENTGV', '2.76 nM'),
  ('MTSP-1 Q38H/I41S/D60bF/F60eQ/Y60gF/ins97aV/F97D/T98P/F99L/C122S/H143A/G151N/Q175L/Q192A (enzyme) VVGGTDADEGEWPWQVSLHALGHGHSCGASLISPNWLVSAAHCYIDFRGQRFSDPTQWTAFLGLHDQSQRSAPGVQERRLKRIISHPFFNDDVPLDYDIALLELEKPAEYSSMVRPISLPDASHVFPAGKAIWVTGWGATQYGGTNALILQKGEIRVINQTTCENLLPQLITPRMMCVGFLSGGVDSCAGDSGGPLSSVEADGRIFQAGVVSWGDGCAQRNKPGVYTRLPLFRDWIKENTGV', '4.58 nM'),
  ('MTSP-1 Q38E/H40R/I41H/D60bN/F97D/F99L/C122S/Q192G (enzyme) VVGGTDADEGEWPWQVSLHALGEGRHCGASLISPNWLVSAAHCYIDNRGFRYSDPTQWTAFLGLHDQSQRSAPGVQERRLKRIISHPFFNDDTLDYDIALLELEKPAEYSSMVRPISLPDASHVFPAGKAIWVTGWGHTQYGGTGALILQKGEIRVINQTTCENLLPQQITPRMMCVGFLSGGVDSCGGDSGGPLSSVEADGRIFQAGVVSWGDGCAQRNKPGVYTRLPLFRDWIKENTGV', '39.5 nM');
